Data credit: patent US20110224240A1

System: OVCAR-3
Test: 72 hour cytotoxicity, ATP-Lite cell viability
Assay type: cell-based
Conditions: Homo sapiens, OVCAR-3, Ovarian, read-out: 72 Hour Cytotoxicity (IC50, nM ± SD)
RESULT_TYPE: IC50

Could you please provide reported IC50 for COc1ccc(N(C)c2nc(CN)nc3ccccc23)cc1 [Compound 1] ? Thanks!
29 nM

---

# pIC50 values compiled below
Tested on: P388/ADR (MDR-1)
Test: Multidrug resistant cell assay, cytotoxicity
Format: cell-based
Settings: 72 hours, read-out: Various MDR Cell Line Cytotoxicity IC50
Here pIC50 is given on a logarithmic scale as minus log10 of the concentration in mol/L.

CC[C@]1(O)C[C@@H]2CN(CCc3c([nH]c4ccccc34)[C@@](C(=O)OC)(c3cc4c(cc3OC)N(C)[C@H]3[C@@](O)(C(=O)OC)[C@H](OC(C)=O)[C@]5(CC)C=CCN6CC[C@]43[C@@H]65)C2)C1 [Vinblastine, vinblastine]; 8.08
CC(=O)O[C@@]12CO[C@@H]1C[C@H](O)[C@@]1(C)C(=O)[C@H](O)C3=C(C)[C@@H](OC(=O)[C@H](O)[C@@H](NC(=O)OC(C)(C)C)c4ccccc4)C[C@@](O)([C@@H](OC(=O)c4ccccc4)[C@H]21)C3(C)C [Docetaxel, docetaxel]; 6.70

Continue with the next molecule.
Could you please provide reported pIC50 for COc1ccc(N(C)c2nc(CN)nc3ccccc23)cc1 [Compound 1] ? Thanks!
7.57
